Tested on: COLO 205 colon
Assay: NCI tumour cell line growth inhibition, 48 h
Reported Property: log10 TGI (log10 of the value in µM)

compound=CS(=O)(=O)Nc1cccc(-c2cc(-c3ccccc3Cl)c(C#N)c(N)n2)c1 system_name="COLO 205 colon" recorded_result=0.69
compound=COC(=O)c1c(O)c([N+](=O)[O-])cc2c1c1c(n2Cc2ccccc2)C(=O)c2ccccc2C1=O system_name="COLO 205 colon" recorded_result=0.83
compound=CS(=O)(=O)CCNCc1ccc(-c2ccc3ncnc(Nc4ccc(OCc5cccc(F)c5)c(C(F)(F)F)c4)c3c2)o1 system_name="COLO 205 colon" recorded_result=0.90
compound=CCCCc1ccc(Nc2nc(=S)c3[nH]cnc3[nH]2)cc1 system_name="COLO 205 colon" recorded_result=1.49
compound=CN(C)CCNC(=O)c1cccc2c(Nc3ccc(S(N)(=O)=O)cc3)c3ccccc3nc12 system_name="COLO 205 colon" recorded_result=0.24
compound=N#CC(C#N)N=Nc1ccc(Br)cc1 system_name="COLO 205 colon" recorded_result=0.51
compound="CC(C)CCC[C@@H](C)C1CCC2[C@@H]3CC=C4C[C@@H](C(=O)NCC[N+](C)(C)CCCS(=O)(=O)[O-])CC[C@]4(C)C3CC[C@@]21C (stereo not given in full)" system_name="COLO 205 colon" recorded_result=1.50
compound=O=C(/C=N/O)Nc1cc(Cl)c(Cl)cc1Cl system_name="COLO 205 colon" recorded_result=1.94
compound="C=C1C(=O)OC2/C=C(/C)C3CC(O)C(C)(CC(OC(=O)/C(C)=C/C)C12)O3 (stereo not given)" system_name="COLO 205 colon" recorded_result=0.49
compound="O=C1c2ccccc2NC1(c1ccccc1)c1c(-c2ccccc2)[nH]c2ccccc12 (stereo not given)" system_name="COLO 205 colon" recorded_result=1.55
